Sourced from paper PMC11249646

Measured Curve Class accompanies every entry in the list below.
Molecular target: CIB1 and αIIb interaction (CIB1-GST : F-αIIb peptide) (Homo sapiens)
Construct: made in house; host or cells: BL-21 plus RIL cells (E. coli)
Sequence (Q99828 whole entry): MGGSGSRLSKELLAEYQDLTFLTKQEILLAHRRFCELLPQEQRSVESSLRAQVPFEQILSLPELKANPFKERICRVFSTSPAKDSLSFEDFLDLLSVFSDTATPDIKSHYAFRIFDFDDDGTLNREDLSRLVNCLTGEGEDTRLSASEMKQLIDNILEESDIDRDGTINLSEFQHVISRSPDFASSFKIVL
Experiment: FP assay, 1536-well qHTS format (primary and confirmatory screen)
Assay type: binding
Settings: qHTS primary screen hits, Table S2; negative sign = inhibitory curve; several classes where COUNT > 1

1. CCOC(=O)c1ccc(O)c2ncc(N3CCC(C(=N)N)CC3)cc12.O=C(O)C(F)(F)F | -1.1
2. CO[C@@]12[C@H](COC(N)=O)C3=C(C(=O)C(C)=C(N)C3=O)N1C[C@@H]1N[C@@H]12 | -1.2

Next, consider the following molecule.
Item C[C@H]1COC2=C1C(=O)C(=O)c1c2ccc2c1CCCC2(C)C ; assay system CIB1 and αIIb interaction (CIB1-GST : F-αIIb peptide) (Homo sapiens); Curve Class reported as -2.4
